Experimental system: BTK T474I (Homo sapiens (Human), UniProt Q06187, T474I)
Sequence (Q06187 whole entry T474I): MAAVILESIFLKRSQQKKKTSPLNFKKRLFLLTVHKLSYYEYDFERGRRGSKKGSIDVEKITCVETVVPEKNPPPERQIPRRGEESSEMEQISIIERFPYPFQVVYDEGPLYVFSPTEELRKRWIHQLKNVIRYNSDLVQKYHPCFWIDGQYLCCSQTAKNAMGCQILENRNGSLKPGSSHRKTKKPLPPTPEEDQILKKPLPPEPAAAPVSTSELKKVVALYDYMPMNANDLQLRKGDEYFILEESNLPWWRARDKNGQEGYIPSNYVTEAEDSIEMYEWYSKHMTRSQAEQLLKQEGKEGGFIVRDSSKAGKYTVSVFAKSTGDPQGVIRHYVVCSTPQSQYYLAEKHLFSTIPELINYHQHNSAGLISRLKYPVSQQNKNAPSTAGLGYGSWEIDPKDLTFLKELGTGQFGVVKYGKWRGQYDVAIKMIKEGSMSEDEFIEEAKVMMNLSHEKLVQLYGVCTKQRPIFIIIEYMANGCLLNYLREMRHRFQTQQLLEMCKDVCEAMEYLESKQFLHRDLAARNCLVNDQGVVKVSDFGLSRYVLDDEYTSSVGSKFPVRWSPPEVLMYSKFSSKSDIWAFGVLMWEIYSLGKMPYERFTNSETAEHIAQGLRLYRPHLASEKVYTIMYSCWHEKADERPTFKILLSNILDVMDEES
Assay remarks: Binding kinetics measurements (Surface Plasmon Resonance) on BTK T474I
Condition label: binding affinity by Surface Plasmon Resonance (SPR)
pKd: −log10 of the molar value.
Endpoint name: pKd

Nc1ncc2c3c1c(-c1ccc(C(=O)Nc4cc(C(F)(F)F)ccn4)cc1)nn3[C@@H]1CCC[C@H](C1)NC(=O)CCOCC/C=C/2; > 8.70
Nc1ncc2c3c1c(-c1ccc(C(=O)Nc4cc(C(F)(F)F)ccn4)cc1)nn3[C@@H]1CCC[C@H](C1)NC(=O)CCCOC/C=C/2; > 8.70

Continue with the next compound.
## Input Report pKd for C[C@H]1CC(=O)N[C@@H]2CCC[C@H](C2)n2nc(-c3ccc(C(=O)Nc4cc(C(F)(F)F)ccn4)cc3)c3c(N)ncc(c32)/C=C/CN1C tested on BTK T474I (Homo sapiens (Human), UniProt Q06187, T474I).
## Output > 8.70
